- Tested on: MT2
- PROTOCOL_NOTES: Lethal dose (LD5) concentration inhibiting growth of MT-2 cells by 5%
- Type: toxicity, cell-based
- TEST_PARAMETERS: human
The label Criterion met is reserved for LD5 strictly under 200 µM; Criterion not met covers values equal to or above it.

{"COMPOUND": "O=C(O)C(O)C(O)C(=O)O (centres undefined)", "CATEGORY": "Criterion not met"}
{"COMPOUND": "O=C(/C=C/c1cccc(O)c1)OC(C(=O)O)C(OC(=O)/C=C/c1cccc(O)c1)C(=O)O (centres undefined)", "CATEGORY": "Criterion not met"}
{"COMPOUND": "O=C(/C=C/c1ccccc1)OC(C(=O)O)C(OC(=O)/C=C/c1ccccc1)C(=O)O (centres undefined)", "CATEGORY": "Criterion not met"}
{"COMPOUND": "O=C(/C=C/c1ccc(O)c(O)c1)OCC(OC(=O)/C=C/c1ccc(O)c(O)c1)C(=O)O (centres undefined)", "CATEGORY": "Criterion met"}
{"COMPOUND": "O=C(/C=C/c1ccc(O)c(O)c1)OC(C(=O)OC(c1ccccc1)c1ccccc1)C(OC(=O)/C=C/c1ccc(O)c(O)c1)C(=O)OC(c1ccccc1)c1ccccc1 (centres undefined)", "CATEGORY": "Criterion met"}
{"COMPOUND": "O=C(O)/C=C/c1ccc(O)c(O)c1", "CATEGORY": "Criterion not met"}
{"COMPOUND": "O=C(/C=C\\c1ccc(O)c(O)c1)OC1CCCCC1OC(=O)/C=C\\c1ccc(O)c(O)c1 (centres undefined)", "CATEGORY": "Criterion met"}
{"COMPOUND": "O=C(/C=C/c1ccc(O)c(O)c1)O[C@@H]1C[C@@](O)(C(=O)O)CC(O)[C@@H]1OC(=O)/C=C/c1ccc(O)c(O)c1 (some centres undefined)", "CATEGORY": "Criterion met"}

* * *

Recorded pEC50 by entry
- Tested on: Human immunodeficiency virus 1
- PROTOCOL_NOTES: microbe, parasite or virus in culture
- TEST_PARAMETERS: Human immunodeficiency virus 1, read-out: ED50
pEC50: −log10 of the molar value.

{"COMPOUND": "O=C(Cc1ccc(O)c(O)c1)OC(C(=O)O)C(OC(=O)Cc1ccc(O)c(O)c1)C(=O)O (configuration not stated)", "pEC50": "< 4.20"}
{"COMPOUND": "O=C(OC(C(=O)O)C(OC(=O)c1ccc(O)c(O)c1)C(=O)O)c1ccc(O)c(O)c1 (configuration not stated)", "pEC50": "< 4.28"}

* * *

Recorded IC50 by entry
- TARGET_UNDER_TEST: Human immunodeficiency virus type 1 integrase (Human immunodeficiency virus 1)

{"COMPOUND": "O=C(/C=C/c1ccc(O)c(O)c1)OCC(OC(=O)/C=C/c1ccc(O)c(O)c1)C(=O)O (configuration not stated)", "UNIT_SPEC": "nM", "VALUE_RELATION_SIGN": "=", "IC50": 520}
{"COMPOUND": "O=C(Cc1ccc(O)c(O)c1)OC(C(=O)O)C(OC(=O)Cc1ccc(O)c(O)c1)C(=O)O (configuration not stated)", "UNIT_SPEC": "nM", "VALUE_RELATION_SIGN": "=", "IC50": 880}
{"COMPOUND": "O=C(OC(C(=O)O)C(OC(=O)c1cc(O)c(O)c(O)c1)C(=O)O)c1cc(O)c(O)c(O)c1 (configuration not stated)", "UNIT_SPEC": "nM", "VALUE_RELATION_SIGN": "=", "IC50": 970}
{"COMPOUND": "O=C(CCc1ccc(O)c(O)c1)OC(C(=O)O)C(OC(=O)CCc1ccc(O)c(O)c1)C(=O)O (configuration not stated)", "UNIT_SPEC": "nM", "VALUE_RELATION_SIGN": "=", "IC50": 2380}
{"COMPOUND": "O=C(/C=C/c1ccc(O)c(O)c1)OC1CCC(OC(=O)/C=C/c2ccc(O)c(O)c2)CC1 (configuration not stated)", "UNIT_SPEC": "nM", "VALUE_RELATION_SIGN": "=", "IC50": 1030}
{"COMPOUND": "O=C(/C=C/c1ccc(O)c(O)c1)OCCCOC(=O)/C=C/c1ccc(O)c(O)c1", "UNIT_SPEC": "nM", "VALUE_RELATION_SIGN": ">", "IC50": 10000}
{"COMPOUND": "O=C(/C=C/c1ccc(O)c(O)c1)O[C@@H]1C[C@](O)(C(=O)O)C[C@@H](OC(=O)/C=C/c2ccc(O)c(O)c2)[C@H]1O", "UNIT_SPEC": "nM", "VALUE_RELATION_SIGN": "=", "IC50": 1300}

* * *

- Tested on: MT2
- PROTOCOL_NOTES: Lethal dose (LD5) concentration inhibiting growth of MT-2 cells by 5%
- Assay type: toxicity, cell-based
- TEST_PARAMETERS: human
Recorded LD5 by entry

{"MOLECULE": "O=C(OC(C(=O)O)C(OC(=O)c1cc(O)cc(O)c1)C(=O)O)c1cc(O)cc(O)c1 (stereo unspecified)", "VALUE_RELATION_SIGN": ">", "LD5 [µM]": 119}
{"MOLECULE": "O=C(Cc1ccc(O)c(O)c1)OC(C(=O)O)C(OC(=O)Cc1ccc(O)c(O)c1)C(=O)O (stereo unspecified)", "VALUE_RELATION_SIGN": "=", "LD5 [µM]": 70}
{"MOLECULE": "O=C(/C=C\\c1ccc(O)c(O)c1)OC1CCC(OC(=O)/C=C\\c2ccc(O)c(O)c2)CC1 (stereo unspecified)", "VALUE_RELATION_SIGN": "=", "LD5 [µM]": 20.5}
{"MOLECULE": "O=C(/C=C/c1ccc(O)c(O)c1)O[C@H](C(=O)O)[C@H](OC(=O)/C=C/c1ccc(O)c(O)c1)C(=O)O", "VALUE_RELATION_SIGN": "=", "LD5 [µM]": 115}
{"MOLECULE": "O=C(/C=C/c1ccc(O)c(O)c1)OC1CCCC(OC(=O)/C=C/c2ccc(O)c(O)c2)C1 (stereo unspecified)", "VALUE_RELATION_SIGN": "=", "LD5 [µM]": 9.1}
{"MOLECULE": "O=C(/C=C/c1ccc(O)cc1)OC(C(=O)O)C(OC(=O)/C=C/c1ccc(O)cc1)C(=O)O (stereo unspecified)", "VALUE_RELATION_SIGN": "=", "LD5 [µM]": 114}
{"MOLECULE": "O=C(OC(C(=O)O)C(OC(=O)c1cc(O)ccc1O)C(=O)O)c1cc(O)ccc1O (stereo unspecified)", "VALUE_RELATION_SIGN": ">", "LD5 [µM]": 238}
{"MOLECULE": "O=C(/C=C/c1ccc(O)c(O)c1)O[C@@H]1C[C@](O)(C(=O)O)C[C@@H](O)[C@H]1O", "VALUE_RELATION_SIGN": "=", "LD5 [µM]": 249}
{"MOLECULE": "O=C(OC(C(=O)O)C(OC(=O)c1cc(O)c(O)c(O)c1)C(=O)O)c1cc(O)c(O)c(O)c1 (stereo unspecified)", "VALUE_RELATION_SIGN": "=", "LD5 [µM]": 2.7}
{"MOLECULE": "O=C(/C=C/c1ccc(O)c(O)c1)OCCCOC(=O)/C=C/c1ccc(O)c(O)c1", "VALUE_RELATION_SIGN": "=", "LD5 [µM]": 117.5}
{"MOLECULE": "O=C(/C=C/c1ccc(O)c(O)c1)OC1C[C@](O)(C(=O)O)C[C@@H](O)[C@H]1OC(=O)/C=C/c1ccc(O)c(O)c1 (stereo partly specified)", "VALUE_RELATION_SIGN": "=", "LD5 [µM]": 145}

Origin of values: ChEMBL document CHEMBL1132572
